- Tested on: WI 38 (normal fibroblast cells)
- protocol notes: SRB cell growth assay, normal cells WI 38
- Assay type: cell-based, human
- condition notes: 48 h exposure, non-cytotoxic = IC50 > 100 μg/mL

{"columns": ["molecule", "assayed target", "IC50 (μg/mL) WI 38"],
 "data": [
  ["CCOC(=O)COc1nc(-c2ccc(Cl)cc2Cl)cc(-c2ccc(F)cc2)c1C#N [Compound 8]", "WI 38 (normal fibroblast cells)", "non-cytotoxic"],
  ["N#Cc1c(-c2ccc(F)cc2)cc(-c2ccc(Cl)cc2Cl)nc1C(C#N)C#N [Compound 16]", "WI 38 (normal fibroblast cells)", "non-cytotoxic"],
  ["COc1ccc(C=NNc2nc(-c3ccc(Cl)cc3Cl)cc(-c3ccc(F)cc3)c2C#N)cc1OC [Compound 21d]", "WI 38 (normal fibroblast cells)", "non-cytotoxic"],
  ["COc1cccc2c1C(=O)c1c(O)c3c(c(O)c1C2=O)C[C@@](O)(C(=O)CO)C[C@@H]3O[C@H]1C[C@H](N)[C@H](O)[C@H](C)O1 [Doxorubicin, reference compound]", "WI 38 (normal fibroblast cells)", "non-cytotoxic"]
]}

* * *

- System: SF-268 (CNS cancer)
- protocol notes: SRB cancer cell growth assay, SF-268
- Assay type: cell-based, human
- Parameters: key: highly active; b: moderately active; weakly active
- condition notes: SF-268
- Protocol: The in vitro cytotoxic activity the newly synthesized compounds against human breast cell line (MCF7), non-small cell lung cancer NCI-H460, CNS cancer SF-268 and WI 38 (normal fibroblast cells) were evaluated using doxorubicin as the reference drug, according to the method reported by Skehan et al.. […]
recorded metric: activity class SF-268

{"columns": ["compound", "assayed target", "measured value"],
 "data": [
  ["Cc1cc(C)n(-c2nc(-c3ccc(Cl)cc3Cl)cc(-c3ccc(F)cc3)c2C#N)n1", "SF-268 (CNS cancer)", "a"],
  ["N#Cc1c(N)c2c(-c3ccc(F)cc3)cc(-c3ccc(Cl)cc3Cl)nc2[nH]c1=O", "SF-268 (CNS cancer)", "c"],
  ["N#Cc1c(-c2ccc(F)cc2)cc(-c2ccc(Cl)cc2Cl)nc1OCC(=O)NN", "SF-268 (CNS cancer)", "a"],
  ["N#Cc1c(-c2ccc(F)cc2)cc(-c2ccc(Cl)cc2Cl)nc1NN=C1C(=O)Nc2ccccc21", "SF-268 (CNS cancer)", "a"],
  ["Nc1nnc2[nH]c(-c3ccc(Cl)cc3Cl)cc(-c3ccc(F)cc3)c1-2", "SF-268 (CNS cancer)", "c"]
]}

Hey, can you go through the list below and give me activity class SF-268 for every item?
1. N#Cc1c(-c2ccc(F)cc2)cc(-c2ccc(Cl)cc2Cl)nc1OCC(=O)NN=Cc1ccc(F)cc1
2. CC1=NN(c2nc(-c3ccc(Cl)cc3Cl)cc(-c3ccc(F)cc3)c2C#N)C(=O)C1

Reply text:
["b", "b"]

* * *

Can you tell me melting point for the items I'm about to list?

// known answers, use as guide
{"columns": ["molecule", "recorded metric", "measured value"],
 "data": [
  ["N#Cc1c(-c2ccc(F)cc2)cc(-c2ccc(Cl)cc2Cl)nc1NCCc1ccccc1", "melting point", "142 to 143 °C"],
  ["CC1CCCCN1c1nc(-c2ccc(Cl)cc2Cl)cc(-c2ccc(F)cc2)c1C#N (centres unmarked) [Compound 15a]", "melting point", "98 to 100 °C"],
  ["N#Cc1c(-c2ccc(F)cc2)cc(-c2ccc(Cl)cc2Cl)nc1NN=Cc1cccc2ccccc12 [Compound 21e]", "melting point", "296 to 298 °C"],
  ["N#Cc1c(N)c2c(-c3ccc(F)cc3)cc(-c3ccc(Cl)cc3Cl)nc2[nH]c1=O", "melting point", "188 to 189 °C"]
]}

For each of the items listed, what is its melting point?
1. COc1ccc(C=NNc2nc(-c3ccc(Cl)cc3Cl)cc(-c3ccc(F)cc3)c2C#N)cc1OC [Compound 21d]
2. N#Cc1c(-c2ccc(F)cc2)cc(-c2ccc(Cl)cc2Cl)nc1NN=C1C(=O)Nc2ccccc21
3. N#Cc1c(-c2ccc(F)cc2)cc(-c2ccc(Cl)cc2Cl)nc1NCc1ccccc1
4. N#Cc1c(-c2ccc(F)cc2)cc(-c2ccc(Cl)cc2Cl)nc1C(C#N)C#N

Reply text:
1. 278 to 280 °C
2. 268 to 269 °C
3. 158 to 159 °C
4. 99 to 101 °C

* * *

- System: SF-268 (CNS cancer)
- protocol notes: SRB cancer cell growth assay, SF-268
- Type: cell-based, human
- condition notes: Homo sapiens; SF-268, 48 h exposure, SRB; read-out: IC50 (μg/mL) SF-268
recorded metric: IC50 (µg/mL)
One number for each entry, in µg/mL.

{"columns": ["compound", "unit name", "measured value"],
 "data": [
  ["CC1CCCCN1c1nc(-c2ccc(Cl)cc2Cl)cc(-c2ccc(F)cc2)c1C#N (stereo not drawn) [Compound 15a]", "µg/mL", 38.9],
  ["COc1cccc2c1C(=O)c1c(O)c3c(c(O)c1C2=O)C[C@@](O)(C(=O)CO)C[C@@H]3O[C@H]1C[C@H](N)[C@H](O)[C@H](C)O1 [Doxorubicin, reference compound]", "µg/mL", 0.09]
]}

# input for lookup
Inquiry: Quick one: IC50 for COc1ccc(C=NNc2nc(-c3ccc(Cl)cc3Cl)cc(-c3ccc(F)cc3)c2C#N)cc1OC [Compound 21d] ?
Reply text: 32.5

* * *

- Test system: SF-268 (CNS cancer)
- protocol notes: SRB cancer cell growth assay, SF-268
- Type: cell-based, human
- Set-up: key: highly active; b: moderately active; weakly active
- condition notes: SF-268
recorded metric: activity class SF-268

Known activity class SF-268 results, listed for orientation:
{"columns": ["molecule", "recorded metric", "measured value"],
 "data": [
  ["CC1CCCCN1c1nc(-c2ccc(Cl)cc2Cl)cc(-c2ccc(F)cc2)c1C#N (stereo not drawn) [Compound 15a]", "activity class SF-268", "c"],
  ["N#Cc1c(-c2ccc(F)cc2)cc(-c2ccc(Cl)cc2Cl)nc1C(C#N)C#N", "activity class SF-268", "a"],
  ["N#Cc1c(-c2ccc(F)cc2)cc(-c2ccc(Cl)cc2Cl)nc1NCc1ccc2c(c1)OCO2", "activity class SF-268", "b"],
  ["N#Cc1c(-c2ccc(F)cc2)cc(-c2ccc(Cl)cc2Cl)nc1NN", "activity class SF-268", "a"],
  ["CCOC(=O)COc1nc(-c2ccc(Cl)cc2Cl)cc(-c2ccc(F)cc2)c1C#N", "activity class SF-268", "a"]
]}

Now look at this one.
Inquiry: What reported activity class SF-268 corresponds to COc1ccc(C=NNc2nc(-c3ccc(Cl)cc3Cl)cc(-c3ccc(F)cc3)c2C#N)cc1OC [Compound 21d] on SF-268 (CNS cancer)?
Reply text: b

# credit: paper PMC6272992
